test system: Escherichia coli; settings: Concentration 32 ug.mL-1;; ASSAY_TEST Inhibition of Bacterial Growth; detection method Absorption (OD600); MEDIA CAMHB; plate type 384well; NBS; CORNING #3640; time 18 hr
Description: Antibacterial activity against Escherichia coli ATCC 25922 (CO-ADD:GN_001); MIC in CAMBH media using NBS plates, by OD(600)
Measured potencies and affinities stand elsewhere.
Readout label: Inhibition (%)

[[record]]
compound = "Cc1ccc(C)c(Cn2nc3n(CC(C)C)c(=O)c4sccc4n3c2=O)c1"
readout_label = "Inhibition"
measured_result = 1.72

[[record]]
compound = "Cc1ccc(NC(=O)Cn2nc3c(N4CCCC(C)C4)nccn3c2=O)cc1C (stereo not given)"
readout_label = "Inhibition"
measured_result = -2.82

[[record]]
compound = "COc1ccccc1N1CCN(C(=O)Cn2nc3c(Oc4ccc(C)cc4)nccn3c2=O)CC1"
readout_label = "Inhibition"
measured_result = 0.36

[[record]]
compound = "COc1cccc(Cn2nc3n(CCC(=O)NC4CCCCC4)c(=O)c4ccccc4n3c2=O)c1"
readout_label = "Inhibition"
measured_result = -3.05

[[record]]
compound = "O=C(Cn1nc2c3cc(-c4ccc(F)cc4)nn3ccn2c1=O)NCc1ccccc1Cl"
readout_label = "Inhibition"
measured_result = -0.1


* * *

system: Escherichia coli; conditions: Concentration 32 ug.mL-1;; ASSAY_TEST Inhibition of Bacterial Growth; detection method Absorption (OD600); MEDIA CAMHB; plate type 384well; NBS; CORNING #3640; time 18 hr
Entries with a potency or affinity are not part of this list.
Below, each entry is listed with its recorded Inhibition.
Readout label: Inhibition (%)

[[record]]
molecule = "O=C(CSc1nnc2c(=O)n(-c3ccccc3)ccn12)c1ccc(F)cc1"
measured_result = -2

[[record]]
molecule = "Cc1ccc(NC(=O)Cn2nc3c(N4CC(C)CC(C)C4)nccn3c2=O)c(F)c1 (stereo not given)"
measured_result = 1.48

[[record]]
molecule = "Cc1ccc(-c2ccc3nn(CC(=O)Nc4ccccc4)c(=O)n3n2)cc1C"
measured_result = -8.76

[[record]]
molecule = "Cc1ccc(NC(=O)Cn2nc3c(SCc4ccc(Cl)cc4)nccn3c2=O)cc1F"
measured_result = 0.08

[[record]]
molecule = "Cc1cc(C)c(NC(=O)Cn2nc3c4cc(-c5ccc(C)c(C)c5)nn4ccn3c2=O)c(C)c1"
measured_result = -12.18

[[record]]
molecule = "C=Cc1ccc(CN(c2ccc(F)c(F)c2)S(=O)(=O)c2cccn3cnnc23)cc1"
measured_result = -13.7

[[record]]
molecule = "COc1ccc(N(Cc2cccc(C)c2)S(=O)(=O)c2ccc3nncn3c2)cc1"
measured_result = -12.64

[[record]]
molecule = "COc1ccc(NC(=O)Cn2nc3c(SCc4ccc(Cl)cc4)nccn3c2=O)cc1OC"
measured_result = -6.36

[[record]]
molecule = "Cc1cc2nn(CC(=O)Nc3ccc(F)cc3Cl)c(=O)n2c(Nc2ccc(F)cc2)n1"
measured_result = -0.12

[[record]]
molecule = "COc1cc(NC(=O)Cn2nc3ccc(C(=O)NCc4ccccc4)cn3c2=O)cc(OC)c1OC"
measured_result = -8.69


* * *

system: Escherichia coli; details: Concentration 32 ug.mL-1;; ASSAY_TEST Inhibition of Bacterial Growth; detection method Absorption (OD600); MEDIA CAMHB; plate type 384well; NBS; CORNING #3640; time 18 hr
Potency and affinity values are given separately.
Below, each entry is listed with its recorded Inhibition.
Readout label: Inhibition (%)

[[record]]
molecule = "CC(C)Cn1c(=O)c2sccc2n2c(=O)n(Cc3ccc(Cl)cc3)nc12"
measured_result = 0.89

[[record]]
molecule = "COc1ccc(-c2cc3c4nnc(CCC(=O)NCc5ccccc5Cl)n4ccn3n2)cc1"
measured_result = -2.58

[[record]]
molecule = "CCOC(=O)c1ccccc1NC(=O)Cn1nc2c(Oc3cccc(OC)c3)nccn2c1=O"
measured_result = 1.57

[[record]]
molecule = "O=C(Cn1nc2c3cc(-c4ccc(Cl)cc4)nn3ccn2c1=O)NC1CCCC1"
measured_result = -3.32

[[record]]
molecule = "CCc1ccccc1NC(=O)Cn1nc2n(CCC(C)C)c(=O)c3sccc3n2c1=O"
measured_result = -9.52

[[record]]
molecule = "COc1ccc(CN(c2ccc(C(C)C)cc2)S(=O)(=O)c2cccn3cnnc23)cc1"
measured_result = 1.37

[[record]]
molecule = "Cc1ccc(-c2cc3c4nnc(CCC(=O)N5CCC(Cc6ccccc6)CC5)n4ccn3n2)cc1C"
measured_result = 2.4

[[record]]
molecule = "COc1ccc(NC(=O)c2ccc3nn(CC(=O)Nc4ccc5c(c4)OCCO5)c(=O)n3c2)cc1"
measured_result = -8.29

[[record]]
molecule = "COc1cccc(Oc2nccn3c(=O)n(CC(=O)NCc4ccccc4Cl)nc23)c1"
measured_result = 2.87

[[record]]
molecule = "O=C(Cn1nc2c(Sc3ccccc3)nccn2c1=O)Nc1cccc(Cl)c1F"
measured_result = -0.62

[[record]]
molecule = "CCC(Sc1nnc2c(=O)n(-c3cccc(OC)c3)ccn12)C(=O)Nc1cc(F)ccc1F (stereo not given)"
measured_result = -7.17

[[record]]
molecule = "CC(C)(C)Sc1ccc2nn(CC(=O)Nc3ccccc3C(F)(F)F)c(=O)n2n1"
measured_result = -2.49

[[record]]
molecule = "COc1ccc(-c2cc3c4nnc(SCC(=O)NCc5ccccc5)n4ccn3n2)cc1"
measured_result = -21.63

[[record]]
molecule = "CC(C)c1nnc2c(SCC(=O)Nc3ccc4c(c3)OCO4)nc3ccccc3n12"
measured_result = -6.38

[[record]]
molecule = "CCOc1ccc(-n2ccn3c(SCC(=O)Nc4cccc(Cl)c4)nnc3c2=O)cc1"
measured_result = 2.43

[[record]]
molecule = "C=Cc1ccc(CN(c2cccc(F)c2)S(=O)(=O)c2ccc3nnc(C)n3c2)cc1"
measured_result = -8.1

[[record]]
molecule = "CCCNC(=O)Cn1nc2n(Cc3cccs3)c(=O)c3sccc3n2c1=O"
measured_result = -4.01

[[record]]
molecule = "CCc1nnc2c(S(=O)(=O)N(Cc3cccc(C)c3)c3ccc(Cl)cc3)cccn12"
measured_result = 0.27

[[record]]
molecule = "Cc1nnc2c(S(=O)(=O)N(Cc3cccc(Cl)c3)c3ccc(F)c(F)c3)cccn12"
measured_result = -3.66

[[record]]
molecule = "Cc1ccc(NC(=O)Cn2nc3ccc(-c4ccc(C)c(C)c4)nn3c2=O)cc1"
measured_result = -5.02

[[record]]
molecule = "Cc1cc2nn(CC(=O)Nc3ccc(F)cc3C)c(=O)n2c(Nc2ccc(F)cc2)n1"
measured_result = -3.34

[[record]]
molecule = "CCC(C)NC(=O)Cn1nc2n(Cc3ccco3)c(=O)c3sccc3n2c1=O (stereo not given)"
measured_result = 2.21

[[record]]
molecule = "CCCCc1ccc(NC(=O)Cn2nc3c(SC4CCCCC4)nccn3c2=O)cc1"
measured_result = -6.08

[[record]]
molecule = "Cc1nnc2c(=S)[nH]c3ccccc3n12"
measured_result = 10.5

[[record]]
molecule = "O=C(Cn1nc2c(N3CCOCC3)nccn2c1=O)NCc1cccs1"
measured_result = 1.24

[[record]]
molecule = "Cc1ccc(NC(=O)Cn2c(=O)c3nnc(C(C)C)n3c3ccccc32)cc1C"
measured_result = 6.48

[[record]]
molecule = "COc1ccc(NC(=O)c2ccc3nn(CC(=O)Nc4cccc(SC)c4)c(=O)n3c2)cc1"
measured_result = -9.26

[[record]]
molecule = "COc1cccc(CSc2nnc3c(=O)n(-c4ccccc4OC)ccn23)c1"
measured_result = 1.01

[[record]]
molecule = "CCOc1ccccc1NC(=O)Cn1nc2c(N3CCN(c4ccccc4)CC3)nccn2c1=O"
measured_result = -3.13

[[record]]
molecule = "COC(=O)c1ccccc1NC(=O)Cn1nc2c(SC3CCCCC3)nccn2c1=O"
measured_result = -11.96

[[record]]
molecule = "Cc1nnc2ccc(S(=O)(=O)N(Cc3cccc(F)c3)c3cccc(F)c3)cn12"
measured_result = -13.2

[[record]]
molecule = "COc1cccc(CNC(=O)Cn2nc3c4cc(-c5cc(C)ccc5C)nn4ccn3c2=O)c1OC"
measured_result = -0.3

[[record]]
molecule = "Cc1ccc(-c2cc3c4nn(CC(=O)Nc5ccccc5C)c(=O)n4ccn3n2)cc1C"
measured_result = 2.13

[[record]]
molecule = "CCOC(=O)c1cccc(NC(=O)CSc2nnc3ccc(C(=O)Nc4cccc(F)c4)cn23)c1"
measured_result = -5.71

[[record]]
molecule = "CCc1nnc2c(=O)n(CC(=O)Nc3ccc(NC(C)=O)cc3)c3ccccc3n12"
measured_result = -3.04

[[record]]
molecule = "Cc1nnc2c(=O)n(CC(=O)Nc3ccc(F)cc3)c3ccccc3n12"
measured_result = 1.65

[[record]]
molecule = "O=C(Cn1nc2nc(Nc3ccc(F)cc3)ccn2c1=O)NCc1ccc(F)cc1Cl"
measured_result = -1.86

[[record]]
molecule = "Cc1cccc(N(Cc2cccc(Cl)c2)S(=O)(=O)c2cccn3c(C)nnc23)c1"
measured_result = -5.89

[[record]]
molecule = "COc1ccc(N(Cc2ccc(F)cc2)S(=O)(=O)c2ccc3nncn3c2)cc1"
measured_result = -2.8

[[record]]
molecule = "COc1cc(OC)c(NC(=O)Cn2nc3ccc(Sc4ccc(C)cc4)nn3c2=O)cc1Cl"
measured_result = -10.5

